Biological target: biotinylated histone H3 peptide trimethylated at lysine 27, H3K27me3 (21-44) (UniProt P68431 22-45, trimethyl-lysine at K27; biotinylated)
Assay: peptide microspot array; apparent Kd; 10 uM H3K27me3; replicate 3
readout: pKd
Worth noting: pKd values are minus log10 of concentrations stated in mol/L.

Quick check: pKd of PcTF, monovalent Polycomb-based transcription factor (pET28 construct, purified from E. coli) (designed binder) MELSAVGERVFAAEALLKRRIRKGRMEYLVKWKGWSQKYSTWEPEENILDARLLAAFEERER ?
5.12
